Experimental system: HLA-C*04:01
Procedure text: thermal melting temperature (Tm) of peptide-HLA complex; higher = more thermostable pHLA complex
Experimental parameters: C1R-A*02:01
Measured quantity: thermal melting temperature (°C)
Kindly answer with a numeric value in °C, unit omitted.

Field: example entries. Status: answers known.
[
  {
    "Sequence entry": "VYDIAAKF",
    "thermal melting temperature / °C": 56.9
  },
  {
    "Sequence entry": "QLDPLVVEL",
    "thermal melting temperature / °C": 50
  },
  {
    "Sequence entry": "NPDDVFREF",
    "thermal melting temperature / °C": 61.2
  },
  {
    "Sequence entry": "LFDKSINEF",
    "thermal melting temperature / °C": 56.3
  },
  {
    "Sequence entry": "FLDLTEQEF",
    "thermal melting temperature / °C": 59.8
  }
]

// returns reported thermal melting temperature for input VFDPIGHF
59.3

Param item: IWEPLAVKL
47.3

Param item: LFDDIDHNM
52.6
